# IC50 against Adenosine kinase (Homo sapiens, UniProt P55263), merged from multiple literature sources
# Sequence (P55263 whole entry): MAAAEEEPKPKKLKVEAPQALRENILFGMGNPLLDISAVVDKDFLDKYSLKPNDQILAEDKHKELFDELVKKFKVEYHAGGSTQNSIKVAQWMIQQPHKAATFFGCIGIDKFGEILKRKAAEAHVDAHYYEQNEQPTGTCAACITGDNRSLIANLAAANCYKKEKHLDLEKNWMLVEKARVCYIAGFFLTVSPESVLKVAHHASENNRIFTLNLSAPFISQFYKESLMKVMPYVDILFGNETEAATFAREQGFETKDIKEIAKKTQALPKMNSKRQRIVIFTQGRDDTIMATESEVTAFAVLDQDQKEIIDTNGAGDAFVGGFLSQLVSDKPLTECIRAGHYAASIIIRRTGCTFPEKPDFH
A number alone suffices; assume nM.

>>> experimental_result("CN(C)c1ccc(C#Cc2ncnc(N)c2-c2ccccc2)cc1")
20
>>> experimental_result("c1ccc(CN2C[C@@H]3CCCN(c4ncnc5oc(-c6ccccc6)nc45)[C@@H]3C2)cc1")
1000
>>> experimental_result("c1ccc(CN2CC[C@@H]3CN(c4ncnc5oc(-c6ccccc6)nc45)C[C@@H]32)cc1")
120
>>> experimental_result("Nc1ncnc2c1c(-c1cn[nH]c1)cn2[C@@H]1O[C@H](CO)[C@@H](O)[C@H]1O")
50
>>> experimental_result("c1ccc(CN2CCC3CN(c4ncnc5oc(-c6ccc(-c7cccs7)cc6)nc45)CC32)cc1 (centres undefined)")
90
>>> experimental_result("O=C(Nc1cccc(-c2nc3c(N4CC5CCN(Cc6ccccc6)C5C4)ncnc3o2)c1)c1ccc(F)cc1 (centres undefined)")
200
>>> experimental_result("CCC1(c2ccc(COc3ccccc3)cc2)Oc2ccccc2-n2cccc2C1=O (centres undefined)")
1200
>>> experimental_result("Nc1cc(C#Cc2ccc(N3CCOCC3)nc2)ncn1")
120
>>> experimental_result("Brc1cccc(-c2nc3c(N4CC5CCN(Cc6ccccc6)C5C4)ncnc3o2)c1 (centres undefined)")
260
>>> experimental_result("Brc1ccc(-c2nc3c(N4CC5CCN(Cc6ccccc6)C5C4)ncnc3o2)cc1 (centres undefined)")
240

Challenge: I would be grateful if you could share the reported IC50 for O=C(Nc1cccc(-c2nc3c(N4CC5CCN(Cc6ccccc6)C5C4)ncnc3o2)c1)C1CC1 (centres undefined) .
Response given: 60

Challenge: Now consider COCC(=O)Nc1ccc(-c2nc3c(N4CC5CCN(Cc6ccccc6)C5C4)ncnc3o2)cc1 (centres undefined) .
Response given: 40

Challenge: Now consider CN(C)c1ccc(-c2nc3c(N4CC5CCN(Cc6ccccc6)C5C4)ncnc3o2)cn1 (centres undefined) .
Response given: 10

Challenge: Now consider CN(C)c1ccc(C#Cc2[nH]cnc3nnc(-c4cccc(Br)c4)c2-3)cn1 .
Response given: 75

----------
pIC50: −log10 of the molar value.
# pIC50 against Adenosine kinase (Homo sapiens, UniProt P55263), merged from multiple literature sources

Please review the entries below; each comes with its answer.
>>> experimental_result("Nc1ncnc2c1c(-c1ccco1)cn2[C@@H]1O[C@H](CO)[C@@H](O)[C@H]1O")
"< 5.70"
>>> experimental_result("Nc1ncnc2c1c(-c1ccc3ccccc3c1)cn2[C@@H]1O[C@H](CO)[C@@H](O)[C@H]1O")
"< 5.30"
>>> experimental_result("Nc1ncnc2c1c(-c1cccc3ccccc13)cn2[C@@H]1O[C@H](CO)[C@@H](O)[C@H]1O")
"< 5.00"
>>> experimental_result("CCCCNc1ncnc2oc(-c3ccccc3)nc12")
"< 5.00"
>>> experimental_result("Nc1ncnc2c1c(-c1cc[nH]n1)cn2[C@@H]1O[C@H](CO)[C@@H](O)[C@H]1O")
"< 5.00"

Challenge: I would be grateful if you could share the reported pIC50 for Fc1ccc(-c2ccc(-c3nc4c(N5CC6CCN(Cc7ccccc7)C6C5)ncnc4o3)cc2)cc1 (stereo not given) .
Response given: < 5.00

Challenge: Now consider Fc1ccc(CN2CCCN(c3ncnc4oc(-c5ccccc5)nc34)CC2)cc1 .
Response given: < 6.00

Challenge: Now consider Nc1ncnc2c1c(-c1ccoc1)cn2[C@@H]1O[C@H](CO)[C@@H](O)[C@H]1O .
Response given: < 5.30

Challenge: Now consider Nc1ncnc2cc(-c3ccc(N4CCOCC4)nc3)n(Cc3ccccc3)c12 .
Response given: < 6.00

Challenge: Now consider Nc1ncnc2c1c(-c1ncc[nH]1)cn2[C@@H]1O[C@H](CO)[C@@H](O)[C@H]1O .
Response given: < 5.30
